- Tested system: T1, recombinant c-Met extracellular domain (human, UniProt P08581 16-932)
- T1 construct: Construct used for SPR is not described further (may be the Fc chimera, as the protocol captures on anti-human Fc)
- Protocol summary: SPR (ProteOn) per Example 3
# Kd per record follows
Value kind: Kd (nM)

INSERT INTO measurements (binder, measured) VALUES
  ('ECB15 (designed binder, not shown: small tags and cut ends) MLPAPKNLVVSEVTEDSARLSWDDPWAFYESFLIQYQESEKVGEAIVLTVPGSERSYDLTGLKPGTEYTVSIYGVHNVYKDTNMRGLPLSAIFTTAPAPAPAPAPLPAPKNLVVSRVTEDSARLSWTAPDAAFDSFWIRYFEFLGSGEAIVLTVPGSERSYDLTGLKPGTEYVVNIMGVKGGKISPPLSAIFTT', 2.6),
  ('ECB97 (designed binder, not shown: small tags and cut ends, Bispecific: P54AR4-83v22, (AP)5, P114AR7P95-C5v2) MLPAPKNLVVSEVTEDSARLSWDDPWAFYESFLIQYQESEKVGEAIVLTVPGSERSYDLTGLKPGTEYTVSIYGVHNVYKDTNIRGLPLSAIFTTAPAPAPAPAPLPAPKNLVVSRVTEDSARLSWTAPDAAFDSFWIRYFEFLGSGEAIVLTVPGSERSYDLTGLKPGTEYVVNILSVKGGSISPPLSAIFTT', 1.7),
  ('ECB96 (designed binder, not shown: small tags and cut ends, Bispecific: P54AR4-83v22, (AP)5, P114AR9P122-A7v2) MLPAPKNLVVSEVTEDSARLSWDDPWAFYESFLIQYQESEKVGEAIVLTVPGSERSYDLTGLKPGTEYTVSIYGVHNVYKDTNIRGLPLSAIFTTAPAPAPAPAPLPAPKNLVVSRVTEDSARLSWTAPDAAFDSFWIRYFEFVSKGDAIVLTVPGSERSYDLTGLKPGTEYVVNILGVKGGSISPPLSAIFTT', 22.1);
